Molecular target: T1, human CD4 (human, UniProt P01730 26-458)
T1 construct: whole, on cells; also called hCD4
Experiment: FACS, clonal hybridoma supernatant on human PBMCs
This listing pairs binders with measured gMFI of CD4+.
Provide the reading as a plain figure in gMFI.

Examples from the recorded data:
75110_03C01A (antibody, V domains shown, Tested as clonal hybridoma supernatant (AlivaMab Mouse Kappa; anti-mouse Fc detection); also called Sib6.2) VH: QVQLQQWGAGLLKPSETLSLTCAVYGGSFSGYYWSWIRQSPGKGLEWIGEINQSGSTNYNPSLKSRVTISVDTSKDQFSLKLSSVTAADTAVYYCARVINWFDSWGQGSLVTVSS VL: DIQMTQSPSSVSASVGDRVTITCRASQGISSWLAWYQQKPGNAPKLLIYDASSFQSGVPSRFSGSGSGTDFTLTISSLQTEDFATYYCQQANSFPYTFGQGTKLEIK; 169000
75110_02E08A (antibody, V domains shown, Tested as clonal hybridoma supernatant (AlivaMab Mouse Kappa; anti-mouse Fc detection)) VH: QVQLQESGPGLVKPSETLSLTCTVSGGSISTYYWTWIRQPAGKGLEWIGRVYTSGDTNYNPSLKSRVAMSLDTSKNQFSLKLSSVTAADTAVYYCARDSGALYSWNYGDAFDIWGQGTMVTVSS VL: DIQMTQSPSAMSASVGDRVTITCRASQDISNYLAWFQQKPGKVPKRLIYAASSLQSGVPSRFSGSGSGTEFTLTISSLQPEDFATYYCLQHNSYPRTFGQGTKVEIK; 115000
75110_01G11A (antibody, V domains shown, Tested as clonal hybridoma supernatant (AlivaMab Mouse Kappa; anti-mouse Fc detection); also called Sib1.6) VH: EVQLVESGGGLVQPGGSLRLSCAASGFTFSSYDMHWVRQATGKGLEWVSTIGTAGDTYYPGSVKGRFTISRENARNSLFLQMNSLRAGDTAVYYCARGGDYYYGMDVWGQGTTVTVSS VL: EIVLTQSPGTLSLFPGERATLSCRASQNTYSSYLAWYQQKPGQAPRLLIYGASNRATGIPDRFSGSGSGTDFTLTISRLEPEDFAVYYCQQHGTSPFTFGPGTKVDIK; 164000

Consider the record given below.
Sample 75110_02I18A (antibody, V domains shown, Tested as clonal hybridoma supernatant (AlivaMab Mouse Kappa; anti-mouse Fc detection); also called 75110_02118A; Sib1.14) VH: EVQVVESGGGLVQPGGSLRLSCAASGFTFSSYDMHWVRQATGKGLEWVSTIGTAGDTYYPGSVKGRFTISRENAKNSLYLQMNSLRAGDTAVYYCARGGYYYYGMDVWGQGTTVTVSS VL: EIVLTQSPGTLSLSPGERATLSCRASQSVSSSYLAWYQQKPGQSPRLLIHGASSRATGIPDRVSGSGSGTDFTLTISRLEPEDFAVYYCQQYGSSPFTFGPGTKVDIK ; gMFI of CD4+ observed: 162000

The reported measurements were obtained from patent US20220112288A1.
